A collection of binders and their measured MFI
- Experimental System: T1, LILRB1
- T1 construct: also called LILRB1 reporter cells; not shown: transmembrane/intracellular domains of PILRb, the display part of the chimeric reporter receptor
- T1 sequence (chain, as listed by the source limits assumed): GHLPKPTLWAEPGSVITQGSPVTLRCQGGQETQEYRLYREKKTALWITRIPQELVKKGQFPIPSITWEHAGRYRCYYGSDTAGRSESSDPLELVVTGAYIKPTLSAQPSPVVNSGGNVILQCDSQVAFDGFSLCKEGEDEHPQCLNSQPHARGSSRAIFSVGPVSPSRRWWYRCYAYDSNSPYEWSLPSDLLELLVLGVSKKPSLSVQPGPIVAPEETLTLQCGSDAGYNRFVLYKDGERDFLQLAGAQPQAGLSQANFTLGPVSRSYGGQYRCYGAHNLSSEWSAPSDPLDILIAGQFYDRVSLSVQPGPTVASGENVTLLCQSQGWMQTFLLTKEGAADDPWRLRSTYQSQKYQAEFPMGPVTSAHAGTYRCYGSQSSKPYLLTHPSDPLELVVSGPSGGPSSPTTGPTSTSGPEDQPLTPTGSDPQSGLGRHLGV
- Procedure Summary: flow cytometry, reporter cells

Binder: B2-17 (antibody, V domains shown, also called B2-17_HC; B2-17_LC) VH: EVQLLDSGPRLLKPSETLSLTCGVSGVSTSSTHWWSWVRQTPGKGLEWIGEILHNGNTNSNPSLKSRVSMSIDKSRNQFSLQLKSMTAADTAVYYCASASPNWGASGAFDAWAQGTMVTVSS VL: QSVLTQPPSASATPGQRVTISCSGSSSNIGSNPVNWYQQVPGMAPELVMYSDNQRPSGVPDRFSGSNSGTSASLAISGLQSEDEADYYCSTWDDSLNGLVFGTGTKVTVL
MFI: 9

Binder: B2-7 (antibody, V domains shown, also called B2-7_HC; B2-7_LC) VH: EVQLVESGGGVVQPGRSLRLSCAASGFTISSYGMHWVRQAPGKGLEWVAVISYDGSNKYYADSVKGRFTISRDNSKNTLYLQMNSLRVEDTAVYYCAKDLLLRYFDWSPKYYYNGMDVWGQGTMVTVSS VL: QSVLTQPPSVSVAPGKTARITCGGNNIGSKSVHWYQQKPGQAPVLVVYDDSDRPSGIPERFSGSNSGNTATLTISRVEAGDEADYYCQVWDSSSDHPGVFGTGTKVTVL
MFI: 10

Binder: B2-15 (antibody, V domains shown, also called B-15; B2-15_HC) VH: EVQLVQSGAEVKKSGASVKVSCKSSGYTFTNYGISWVRQAPGQGLEWMGWISGDAGDTKFAQKFQGRVTMTTDTSTTTTYMELRSLRSDDTAVYYCARDGEYIPMFRGFDNYYGLDVWGQGTLVSVSS VL: QSVLTQPPSASATPGQRVTISCSGRNANIGSNPVNWYQQLPGTAPRLVMYSNNQRPSGVPDRFSGSKSGTSASLAISGLQSEDEADYYCEGWDDSLNGYVFGTGTKVTVL
MFI: 9
